Collected pKd values appear next to each entry.
molecular target: T1, sRAGE (V-C1-C2) lot LP08062 (human, UniProt Q15109 23-331, limits assumed); assay: SPR (Biacore), mAb captured on anti-mouse Fc, sRAGE 15 nM, Langmuir 1:1
T1 construct: domain: V-C1-C2; also called Human RAGE; LP08062 (Rage)
T1 sequence (Q15109 23-331 limits assumed): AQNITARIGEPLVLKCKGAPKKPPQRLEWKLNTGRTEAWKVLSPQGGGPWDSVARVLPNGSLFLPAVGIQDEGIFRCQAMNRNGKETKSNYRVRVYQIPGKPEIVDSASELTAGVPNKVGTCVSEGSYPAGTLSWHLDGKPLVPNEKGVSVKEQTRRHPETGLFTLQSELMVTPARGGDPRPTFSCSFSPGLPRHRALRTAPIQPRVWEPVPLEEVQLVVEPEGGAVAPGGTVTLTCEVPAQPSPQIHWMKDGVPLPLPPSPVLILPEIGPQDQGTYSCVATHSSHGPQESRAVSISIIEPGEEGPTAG
Scale note: pKd = -log10(concentration in M).

Examples with answers:
INSERT INTO assay_data (binder, meas_value) VALUES
  ('529 RAGE-1 (antibody, V domains shown, Anti-RAGE monoclonal antibody from a hybridoma, captured by anti-mouse Fc) VH: EIQLQQTGPELVKPGASVKISCKASGYSFTDYIMLWVKQSHGKSLEWIGNINPYYGSTFYNLKFKGKATLTVDKSSSTAYMQLNSLTSEDSAVYYCARSDYWYFDVWGAGTTVTVSS VL: QAVVTQESALTTSPGETVTLTCRSSTGAVTTSNYANWVQEKPDHLFTGLIGGTNNRSPGVPARFSGSLIGDKAALTITGAQTEDEAIYFCALWYSNHLVFGGGTKLTVL', 9.26),
  ('250 RAGE-1 (antibody, V domains shown, Anti-RAGE monoclonal antibody from a hybridoma, captured by anti-mouse Fc; also called Protein 250 RAGE-1) VH: EVKLEESGGGLVQPGGSMKLSCVASGFTFSNYWMNWVRQSPEKGLEWVAEIRLKSNNYATHYAESVKGRFTISRDDSKSSVYLQMNNLRAEDTGIYFCIRDYGNYAMDYWGQGTSVTVSS VL: DIVMTQSQKFMSTSVGDRVSVTCKASQNVGTNVAWYQQKPGQSPKALIYSASYRYSGVPDRFTGSGSGTDFTLTISNVQSEDLAEFFCQQYNSYPLTFGAGTKLELK', 9.25);

Request: Quick one: pKd for 326 RAGE-1 (antibody, V domains shown, Anti-RAGE monoclonal antibody from a hybridoma, captured by anti-mouse Fc; also called LP08137; Protein 326 RAGE-1) VH: EVKLVESGGGLVKPGGSLKLSCAASGFAFSSYDMSWVRQTPEKRLEWVATISSGGSYTSYPDSVQGRFTISRDNARNTLYLQMSSLRSEDTALYYCASSQLPPYAMDYWGQGTSVTVSS VL: DIVMTQSQKFMSTSVGDRVSITCKASQNVGTAVAWYQQKPGQSPKLLIYSASNRYTGVPDRFTGSGSGTDFTLTISNMQSEDLADYFCQQYSSYPLLTFGAGTKLELK ?
Response: 9.22

Request: Quick one: pKd for 259 RAGE-1 (antibody, V domains shown, Anti-RAGE monoclonal antibody from a hybridoma, captured by anti-mouse Fc; also called Protein 259 RAGE -1) VH: QVQLQQSGAELVRPGTSVKVSCKASGYAFTNYLIDWVNQRPGQGLEWIGVINPGSGGTNYNEKFTGKATLTADKSSSTAYMQLSSLTSDDSAVYFCARRRVDTMDYWGQGTSVTVSS VL: QAVVTQESALTTSPGETVTLTCRSSTGAVTTSNYANWVQEKPDHLFTGLIGGTNNRAPGVPARFSGSLIGDKAALTITGAQTEDEAIYFCALWYSNHWVFGGGTKLTVL ?
Response: 9.29

Request: Quick one: pKd for 501-4 RAGE-1 (antibody, V domains shown, Anti-RAGE monoclonal antibody from a hybridoma, captured by anti-mouse Fc) VH: EVMLVDSGGGLVKPGGSLKLSCAASGFTFRSYAMSWVRQTPEKRLEWVATISSGGSYTYYPDSVRGRFTTSRDNGKNTLYLQMSSLRSEDTAMYYCARHGGNYSAWFTYWGQGTLVTVSA VL: QAVVTQESALTTSPGETVTLTCRSSTGAVTTSNYANWVQEKPDHLFTGLIGGTNNRAPDVPARFSGSLIGDKAALTITGAQTEDEAIYFCALWYSNHWVFGGGTKLTVL ?
Response: 10.07

Request: Quick one: pKd for 158 RAGE-1 (antibody, V domains shown, Anti-RAGE monoclonal antibody from a hybridoma, captured by anti-mouse Fc; also called LP08105) VH: QIQLVQSGPELKKPGETVKISCKASGYTFTDYSMHWVKQAPGKGLKWMGWINTETGEPTYADDFKGRFAFSLETSASTAYLLINNLKTEDTATYFCARDYLYYYAMDYWGQGTSVTVSS VL: DVVLTQTPLSLPVNIGDQASISCKSTKSLLNSDGFTYLDWYLQKPGQSPQLLIYLVSNRFSGVPDRFSGSGSGTDFTLKISRVEAEDLGVYYCFQSNYLPLTFGGGTKVEIK ?
Response: 9.20

Request: Quick one: pKd for 210 RAGE-1 (antibody, V domains shown, Anti-RAGE monoclonal antibody from a hybridoma, captured by anti-mouse Fc; also called Protein 210 RAGE-1) VH: EIQLQQTGPELVKPGASVKISCKASGYSFTDYIMVWVKQSHGKSLEWIGTINPYYGSTSYNLKFKGKATLTVDKSSSTANMQLNSLTSEDSAVYYCARLRLYAMDYWGQGTSVTVSS VL: QAVVTQESALTTSPGETVTLTCRSSTGAVTTSNYANWVQEKPDHLFTGLIGGTNNRAPGVPARFSGSLIGDKAALTITGAQTEDEAIYFCALWYSNHFWVFGGGTKLTVL ?
Response: 9.56

Request: Quick one: pKd for 240 RAGE-1 (antibody, V domains shown, Anti-RAGE monoclonal antibody from a hybridoma, captured by anti-mouse Fc; also called LP08108) VH: QIQLVQSGPELKKPGETVKISCKASGYTFTDYSMHWVKQAPGKGLKWMGWINTETGEPTYADDFKGRFAFSLETSASTAYLQINNLKNEDTATYFCARDYLYYYAMDYWGQGTSVTVSS VL: DVVLTQTPLSLPVSIGDQASISCKSTKSLLNSDGFTYLDWYLQKPGQSPQLLIYLVSNRFSGVPDSFSGSGSGTDFTLKISRVEAEDLGVYYCFQSNYFPLTFGGGTTLEIK ?
Response: 9.65
